Quick record: log10 of Ki, Carbonic anhydrase 1 (Homo sapiens, UniProt P00915).
endpoint name: log10 of Ki (log10 of the value in nM)

| cpd smiles | tested target | result number |
| --- | --- | --- |
| NS(=O)(=O)c1cccc(NC(=O)CNCCNCC(=O)O)c1 | Carbonic anhydrase 1 (Homo sapiens, UniProt P00915) | 4.11 |
| NS(=O)(=O)c1ccc(NC(=O)CN(CC(=O)O)CC(=O)O)cc1 | Carbonic anhydrase 1 (Homo sapiens, UniProt P00915) | 4.31 |
| NS(=O)(=O)c1cc(S(N)(=O)=O)c(NC(=O)CNCCNCC(=O)O)c(Cl)c1Cl | Carbonic anhydrase 1 (Homo sapiens, UniProt P00915) | 2.46 |
| NS(=O)(=O)c1ccc(CCOC(=O)CN(CCN(CC(=O)O)CC(=O)O)CC(=O)O)cc1 | Carbonic anhydrase 1 (Homo sapiens, UniProt P00915) | 2.81 |
| NS(=O)(=O)c1nc2ccc(OC(=O)CN(CCN(CC(=O)O)CC(=O)O)CC(=O)O)cc2s1 | Carbonic anhydrase 1 (Homo sapiens, UniProt P00915) | 1.63 |
| NS(=O)(=O)c1ccc(NC(=O)CNCC(=O)O)c(Cl)c1 | Carbonic anhydrase 1 (Homo sapiens, UniProt P00915) | 2.99 |
| NS(=O)(=O)c1ccc(NNC(=O)CNCCNCC(=O)O)cc1 | Carbonic anhydrase 1 (Homo sapiens, UniProt P00915) | 4.34 |
| NS(=O)(=O)c1ccc(COC(=O)CN(CCOCCOCCN(CC(=O)O)CC(=O)OCc2ccc(S(N)(=O)=O)cc2)CC(=O)O)cc1 | Carbonic anhydrase 1 (Homo sapiens, UniProt P00915) | 2.53 |
| NS(=O)(=O)c1nc2ccc(OCCOC(=O)CN(CCOCCOCCN(CC(=O)O)CC(=O)O)CC(=O)O)cc2s1 | Carbonic anhydrase 1 (Homo sapiens, UniProt P00915) | 1.48 |

----------
pKi: −log10 of the molar value.
Quick record: pKi, Carbonic anhydrase 1 (Homo sapiens, UniProt P00915).

| cpd smiles | pKi |
| --- | --- |
| NS(=O)(=O)c1nnc(NC(=O)CCNC(=O)CN(CCN(CC(=O)O)c2ccccc2O)c2ccccc2O)s1 | 6.68 |
| NS(=O)(=O)c1ccc(NC(=O)CN(CCN(CC(=O)O)CC(=O)Nc2ccc(S(N)(=O)=O)cc2I)CC(=O)O)c(I)c1 | 7.05 |
| NS(=O)(=O)c1nc2ccc(OC(=O)CNCCNCC(=O)O)cc2s1 | 7.35 |
| NS(=O)(=O)c1cc(S(N)(=O)=O)c(NC(=O)CN(CCOCCOCCN(CC(=O)O)CC(=O)Nc2c(S(N)(=O)=O)cc(S(N)(=O)=O)c(Cl)c2Cl)CC(=O)O)c(Cl)c1Cl | 7.31 |
| NS(=O)(=O)c1ccc(COC(=O)CNCC(=O)O)cc1 | 5.90 |
| NS(=O)(=O)c1cccc(NC(=O)CN(CCOCCOCCN(CC(=O)O)CC(=O)O)CC(=O)O)c1 | 5.13 |
| NS(=O)(=O)c1ccc(CCNC(=O)CNCCNCC(=O)O)cc1 | 5.81 |
| NS(=O)(=O)c1nnc(NC(=O)CN(CC(=O)O)CC(=O)O)s1 | 6.39 |
| NS(=O)(=O)c1nc2ccc(OC(=O)CN(CC(=O)O)CC(=O)O)cc2s1 | 7.32 |
